# Test system: 186277-243-T-J2-PDC complex spheroid growth
# experiment summary: Anticancer human tumor 186277-243-T-J2-PDC patient-derived colon adenocarcinoma cell line growth inhibition [AhR]
# measurement parameters: second compound 1 µM; first compound 0.03 µM; active compounds read low
I'd be grateful if you could share measured viability, T/C for these entries.
Numbers only, in %.

For orientation, consider the following solved cases.
[
  {
    "compound": "Nc1ncn(C2CC(O)C(CO)S2)c(=O)n1 (centres undefined) + Cc1ccccc1N=Nc1ccc(NC(=O)c2ccnn2C)c(C)c1",
    "observed measurement": 127
  },
  {
    "compound": "Nc1ncn(C2CC(O)C(CO)S2)c(=O)n1 (centres undefined) + CC(CO)NC(=O)c1cc(-c2ccc(Cl)cc2)nn(-c2cnn(C)c2)c1=O",
    "observed measurement": 94.2
  }
]

// for each compound below, give its viability, T/C
1. CCN(c1cc(-c2ccc(CN3CCOCC3)cc2)cc(C(=O)NCc2c(C)cc(C)[nH]c2=O)c1C)C1CCOCC1 + Cc1ccccc1N=Nc1ccc(NC(=O)c2ccnn2C)c(C)c1
2. CCc1c2c(nc3ccc(O)cc13)-c1cc3c(c(=O)n1C2)COC(=O)[C@]3(O)CC + Cc1cncc(-c2nc(NCCc3c[nH]c4ccccc34)c3ncn(C(C)C)c3n2)c1

102
48.5

----------
# System: 186277-243-T-J2-PDC complex spheroid growth
# experiment summary: Anticancer human tumor 186277-243-T-J2-PDC cell line growth inhibition [AhR];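 note: luminescent signal used as a stand-in for viable cell amount; spheroids exposed to compounds for seven days before the viability read; 100% = DMSO vehicle control wells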
# measurement parameters: second compound 0.316 µM; first compound 0.0316 µM; active compounds read low
# Excerpt: Multicellular complex tumor spheroid response to aryl hydrocarbon receptor antagonists in combination with a variety of drugs and investigational agents in selected tumor cell lines […] Compounds. […] If the clinical Cmax for an agent had not been determined, the highest concentration tested was 10 microM (Table 1). […]
observable: viability, T/C

For orientation, consider the following solved cases.
[
  {
    "molecule": "COc1cc(C2c3cc4c(cc3C(OC3OC5COC(C)OC5C(O)C3O)C3COC(=O)C23)OCO4)cc(OC)c1O (stereo not drawn) + Cc1ccccc1N=Nc1ccc(NC(=O)c2ccnn2C)c(C)c1",
    "observed measurement": "98.5%"
  },
  {
    "molecule": "CC[C@@]1(O)C(=O)OCc2c1cc1n(c2=O)Cc2cc3c(CN(C)C)c(O)ccc3nc2-1 + Cc1ccccc1N=Nc1ccc(NC(=O)c2ccnn2C)c(C)c1",
    "observed measurement": "114%"
  }
]

// next entry
// sample NS(=O)(=O)OCC1CC(n2ccc3c(NC4CCc5ccccc54)ncnc32)CC1O (stereo not drawn) + Cc1ccccc1N=Nc1ccc(NC(=O)c2ccnn2C)c(C)c1 , its viability, T/C was 109%

----------
# Tested on: 186277-243-T-J2-PDC complex spheroid growth
# experiment summary: Anticancer human tumor 186277-243-T-J2-PDC cell line growth inhibition [AhR];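 note: luminescent signal used as a stand-in for viable cell amount; spheroids exposed to compounds for seven days before the viability read; 100% = DMSO vehicle control wells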
# measurement parameters: second compound 10 µM; first compound 0.0316 µM; active compounds read low
# Text: Multicellular complex tumor spheroid response to aryl hydrocarbon receptor antagonists in combination with a variety of drugs and investigational agents in selected tumor cell lines […] Compounds. […] If the clinical Cmax for an agent had not been determined, the highest concentration tested was 10 microM (Table 1). […]
observable: viability, T/C (%)
Numbers only, in %.

[
  {
    "compound": "O=C(C=Cc1cccc(S(=O)(=O)Nc2ccccc2)c1)NO + CC(CO)NC(=O)c1cc(-c2ccc(Cl)cc2)nn(-c2cnn(C)c2)c1=O",
    "observable": "viability, T/C",
    "observed measurement": 70.2
  }
]

// for each compound below, give its viability, T/C
1. CC[C@@]1(O)C(=O)OCc2c1cc1n(c2=O)Cc2cc3c(CN(C)C)c(O)ccc3nc2-1 + Cc1ccccc1N=Nc1ccc(NC(=O)c2ccnn2C)c(C)c1
2. Cn1ncnc1C1c2n[nH]c(=O)c3cc(F)cc(c23)NC1c1ccc(F)cc1 (stereo not drawn) + Cc1ccccc1N=Nc1ccc(NC(=O)c2ccnn2C)c(C)c1
3. Nc1ccn(C2OC(CO)C(O)C2(F)F)c(=O)n1 (stereo not drawn) + Cc1ccccc1N=Nc1ccc(NC(=O)c2ccnn2C)c(C)c1
4. CC1COCCN1c1cc(-c2ccnn2C)c2ccnc(-c3ccn[nH]3)c2n1 (stereo not drawn) + Cc1ccccc1N=Nc1ccc(NC(=O)c2ccnn2C)c(C)c1
5. Nc1ncn(C2CC(O)C(CO)O2)c(=O)n1 (stereo not drawn) + Cc1cncc(-c2nc(NCCc3c[nH]c4ccccc34)c3ncn(C(C)C)c3n2)c1
6. O=C(c1cc(Cc2n[nH]c(=O)c3ccccc23)ccc1F)N1CCN(C(=O)C2CC2)CC1 + Cc1cncc(-c2nc(NCCc3c[nH]c4ccccc34)c3ncn(C(C)C)c3n2)c1

[90.5, 95.3, 16, 74.3, 56.7, 48.2]

// for each compound below, give its viability, T/C
1. Nc1ccn(C2OC(CO)C(O)C2(F)F)c(=O)n1 (stereo not drawn) + CC(CO)NC(=O)c1cc(-c2ccc(Cl)cc2)nn(-c2cnn(C)c2)c1=O
2. CC(C)c1c(-c2ccccc2)nc2c(C#N)c[nH]n2c1=O + Cc1cncc(-c2nc(NCCc3c[nH]c4ccccc34)c3ncn(C(C)C)c3n2)c1
3. CC1COCCN1c1cc(C2(S(C)(=N)=O)CC2)nc(-c2ccnc3[nH]ccc23)n1 (stereo not drawn) + Cc1cncc(-c2nc(NCCc3c[nH]c4ccccc34)c3ncn(C(C)C)c3n2)c1
4. CC1COCCN1c1cc(-c2ccnn2C)c2ccnc(-c3ccn[nH]3)c2n1 (stereo not drawn) + Cc1cncc(-c2nc(NCCc3c[nH]c4ccccc34)c3ncn(C(C)C)c3n2)c1
5. Nc1ccccc1NC(=O)c1ccc(CNC(=O)OCc2cccnc2)cc1 + CC(CO)NC(=O)c1cc(-c2ccc(Cl)cc2)nn(-c2cnn(C)c2)c1=O

5.62
26
79.2
13.8
70.3

// sample CC(C)c1c(-c2ccccc2)nc2c(C#N)c[nH]n2c1=O + CC(CO)NC(=O)c1cc(-c2ccc(Cl)cc2)nn(-c2cnn(C)c2)c1=O , its viability, T/C was 90.2

----------
I'd be grateful if you could share measured viability, T/C for these entries.
# System: 186277-243-T-J2-PDC complex spheroid growth
# experiment summary: Anticancer human tumor 186277-243-T-J2-PDC cell line growth inhibition [AhR];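 note: luminescent signal used as a stand-in for viable cell amount; spheroids exposed to compounds for seven days before the viability read; 100% = DMSO vehicle control wells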
# measurement parameters: second compound 0.316 µM; first compound 0.316 µM; active compounds read low
Numbers only, in %.

For orientation, consider the following solved cases.
[
  {
    "molecule": "Nc1ccccc1NC(=O)c1ccc(CNC(=O)OCc2cccnc2)cc1 + Cc1cncc(-c2nc(NCCc3c[nH]c4ccccc34)c3ncn(C(C)C)c3n2)c1",
    "viability, T/C [%]": 101
  },
  {
    "molecule": "O=C(c1cc(Cc2n[nH]c(=O)c3ccccc23)ccc1F)N1CCN(C(=O)C2CC2)CC1 + CC(CO)NC(=O)c1cc(-c2ccc(Cl)cc2)nn(-c2cnn(C)c2)c1=O",
    "viability, T/C [%]": 100
  },
  {
    "molecule": "Nc1ccn(C2OC(CO)C(O)C2(F)F)c(=O)n1 (stereo unspecified) + Cc1cncc(-c2nc(NCCc3c[nH]c4ccccc34)c3ncn(C(C)C)c3n2)c1",
    "viability, T/C [%]": 8.77
  },
  {
    "molecule": "O=C(c1cc(Cc2n[nH]c(=O)c3ccccc23)ccc1F)N1CCN(C(=O)C2CC2)CC1 + Cc1ccccc1N=Nc1ccc(NC(=O)c2ccnn2C)c(C)c1",
    "viability, T/C [%]": 97.5
  },
  {
    "molecule": "COc1cc(C2c3cc4c(cc3C(OC3OC5COC(C)OC5C(O)C3O)C3COC(=O)C23)OCO4)cc(OC)c1O (stereo unspecified) + Cc1cncc(-c2nc(NCCc3c[nH]c4ccccc34)c3ncn(C(C)C)c3n2)c1",
    "viability, T/C [%]": 107
  }
]

// next entry
Readout viability, T/C for NS(=O)(=O)OCC1CC(n2ccc3c(NC4CCc5ccccc54)ncnc32)CC1O (stereo unspecified) + CC(CO)NC(=O)c1cc(-c2ccc(Cl)cc2)nn(-c2cnn(C)c2)c1=O , test system 186277-243-T-J2-PDC complex spheroid growth, was 29.4

----------
# System: 186277-243-T-J2-PDC complex spheroid growth
# experiment summary: Anticancer human tumor 186277-243-T-J2-PDC cell line growth inhibition [AhR]; active = viability on the fitted dose curve at most 10% of control; inactive = the rest;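 note: luminescent signal used as a stand-in for viable cell amount; spheroids exposed to compounds for seven days before the viability read; 100% = DMSO vehicle control wells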
# measurement parameters: second compound 0.1 µM; first compound 0.316 µM
# From the text: Multicellular complex tumor spheroid response to aryl hydrocarbon receptor antagonists in combination with a variety of drugs and investigational agents in selected tumor cell lines […] Compounds. […] If the clinical Cmax for an agent had not been determined, the highest concentration tested was 10 microM (Table 1). […]
Please answer using one outcome listed in label 1 (active), label 0 (inactive)

Past entries and their recorded results:
[
  {
    "compound": "CC1(C)CCC(CN2CCN(c3ccc(C(=O)NS(=O)(=O)c4ccc(NCC5CCOCC5)c([N+](=O)[O-])c4)c(Oc4cnc5[nH]ccc5c4)c3)CC2)=C(c2ccc(Cl)cc2)C1 + CC(CO)NC(=O)c1cc(-c2ccc(Cl)cc2)nn(-c2cnn(C)c2)c1=O",
    "assay system": "186277-243-T-J2-PDC complex spheroid growth",
    "class": "label 0"
  },
  {
    "compound": "CC1(C)CCC(CN2CCN(c3ccc(C(=O)NS(=O)(=O)c4ccc(NCC5CCOCC5)c([N+](=O)[O-])c4)c(Oc4cnc5[nH]ccc5c4)c3)CC2)=C(c2ccc(Cl)cc2)C1 + Cc1cncc(-c2nc(NCCc3c[nH]c4ccccc34)c3ncn(C(C)C)c3n2)c1",
    "assay system": "186277-243-T-J2-PDC complex spheroid growth",
    "class": "label 0"
  },
  {
    "compound": "CC1COCCN1c1cc(C2(S(C)(=N)=O)CC2)nc(-c2ccnc3[nH]ccc23)n1 (stereo not drawn) + Cc1ccccc1N=Nc1ccc(NC(=O)c2ccnn2C)c(C)c1",
    "assay system": "186277-243-T-J2-PDC complex spheroid growth",
    "class": "label 0"
  },
  {
    "compound": "COc1ccc([C@@H](O)c2cc(-c3ncnc4cc(N5CCOCC5)ccc34)c(F)cc2Cl)nn1 + Cc1cncc(-c2nc(NCCc3c[nH]c4ccccc34)c3ncn(C(C)C)c3n2)c1",
    "assay system": "186277-243-T-J2-PDC complex spheroid growth",
    "class": "label 0"
  },
  {
    "compound": "Nc1ncn(C2CC(O)C(CO)O2)c(=O)n1 (stereo not drawn) + Cc1cncc(-c2nc(NCCc3c[nH]c4ccccc34)c3ncn(C(C)C)c3n2)c1",
    "assay system": "186277-243-T-J2-PDC complex spheroid growth",
    "class": "label 0"
  },
  {
    "compound": "Nc1ncn(C2CC(O)C(CO)O2)c(=O)n1 (stereo not drawn) + CC(CO)NC(=O)c1cc(-c2ccc(Cl)cc2)nn(-c2cnn(C)c2)c1=O",
    "assay system": "186277-243-T-J2-PDC complex spheroid growth",
    "class": "label 0"
  },
  {
    "compound": "COc1cccc2c1C(=O)c1c(O)c3c(c(O)c1C2=O)CC(O)(C(=O)CO)CC3OC1CC(N)C(O)C(C)O1 (stereo not drawn) + Cc1cncc(-c2nc(NCCc3c[nH]c4ccccc34)c3ncn(C(C)C)c3n2)c1",
    "assay system": "186277-243-T-J2-PDC complex spheroid growth",
    "class": "label 0"
  },
  {
    "compound": "Nc1ccccc1NC(=O)c1ccc(CNC(=O)OCc2cccnc2)cc1 + Cc1cncc(-c2nc(NCCc3c[nH]c4ccccc34)c3ncn(C(C)C)c3n2)c1",
    "assay system": "186277-243-T-J2-PDC complex spheroid growth",
    "class": "label 0"
  },
  {
    "compound": "NS(=O)(=O)OCC1CC(n2ccc3c(NC4CCc5ccccc54)ncnc32)CC1O (stereo not drawn) + Cc1ccccc1N=Nc1ccc(NC(=O)c2ccnn2C)c(C)c1",
    "assay system": "186277-243-T-J2-PDC complex spheroid growth",
    "class": "label 0"
  },
  {
    "compound": "COc1cc(Nc2ncc3c(n2)-c2ccc(Cl)cc2C(c2c(F)cccc2OC)=NC3)ccc1C(=O)O + Cc1cncc(-c2nc(NCCc3c[nH]c4ccccc34)c3ncn(C(C)C)c3n2)c1",
    "assay system": "186277-243-T-J2-PDC complex spheroid growth",
    "class": "label 0"
  }
]

Dear all, I need the recorded test outcome for COc1cccc2c1C(=O)c1c(O)c3c(c(O)c1C2=O)CC(O)(C(=O)CO)CC3OC1CC(N)C(O)C(C)O1 (stereo not drawn) + CC(CO)NC(=O)c1cc(-c2ccc(Cl)cc2)nn(-c2cnn(C)c2)c1=O , thank you. label 1

Dear all, I need the recorded test outcome for COc1cc(C2c3cc4c(cc3C(OC3OC5COC(C)OC5C(O)C3O)C3COC(=O)C23)OCO4)cc(OC)c1O (stereo not drawn) + CC(CO)NC(=O)c1cc(-c2ccc(Cl)cc2)nn(-c2cnn(C)c2)c1=O , thank you. label 0

Dear all, I need the recorded test outcome for CC(C)c1c(-c2ccccc2)nc2c(C#N)c[nH]n2c1=O + CC(CO)NC(=O)c1cc(-c2ccc(Cl)cc2)nn(-c2cnn(C)c2)c1=O , thank you. label 0

Dear all, I need the recorded test outcome for CC1(C)CCC(CN2CCN(c3ccc(C(=O)NS(=O)(=O)c4ccc(NCC5CCOCC5)c([N+](=O)[O-])c4)c(Oc4cnc5[nH]ccc5c4)c3)CC2)=C(c2ccc(Cl)cc2)C1 + Cc1ccccc1N=Nc1ccc(NC(=O)c2ccnn2C)c(C)c1 , thank you. label 0

Dear all, I need the recorded test outcome for CC1COCCN1c1cc(C2(S(C)(=N)=O)CC2)nc(-c2ccnc3[nH]ccc23)n1 (stereo not drawn) + Cc1cncc(-c2nc(NCCc3c[nH]c4ccccc34)c3ncn(C(C)C)c3n2)c1 , thank you. label 0

Dear all, I need the recorded test outcome for Nc1ccccc1NC(=O)c1ccc(CNC(=O)OCc2cccnc2)cc1 + Cc1ccccc1N=Nc1ccc(NC(=O)c2ccnn2C)c(C)c1 , thank you. label 0

Dear all, I need the recorded test outcome for CC1COCCN1c1cc(C2(S(C)(=N)=O)CC2)nc(-c2ccnc3[nH]ccc23)n1 (stereo not drawn) + CC(CO)NC(=O)c1cc(-c2ccc(Cl)cc2)nn(-c2cnn(C)c2)c1=O , thank you. label 0
